Test: Plasma protein binding in rat by ultracentrifugation method
Type: ADME, cell-free
Conditions: read-out: PPB (converted)
outcome.measure: fraction unbound

{"smiles.repr": "Cc1ccccc1N1CC(C)(C)N([C@H]2CNC[C@@H](C(=O)N[C@H](CC(C)C)c3ccc(F)cn3)C2)CC1=O.O=C(O)/C=C/C(=O)O", "meas.value": 0.37}

###

Test: Plasma protein binding in monkey by ultracentrifugation method
Format: ADME, cell-free, Macaca mulatta
Conditions: rhesus monkey, read-out: PPB (converted)

{"smiles.repr": "Cc1ccccc1N1CC(C)(C)N([C@H]2CNC[C@@H](C(=O)N[C@H](CC(C)C)c3ccc(F)cn3)C2)CC1=O.O=C(O)/C=C/C(=O)O", "fraction unbound": 0.45}
